- Target: WT Spike (SARS-CoV2, UniProt P0DTC2 16-1213)
Outcome measure: pKd
# pKd is unitless: minus log10 of the molar concentration; print number only

A selection of reference data follows.
S1-RBD-R3-T1-F9 Ab (Ab_39) (scFv, V domains shown) VH: QVTLKESGPTLVKPTQTLTLTCTLSGVSLDTIGMRVSWIRQPPGKALEWLARIDWDDDKFYSTALKTRLTISKDTSKNQVVFTMTSMDPVDTATYYCARSGLLYDLDVWGRGTLVTVSS VL: QSVVTQPPSVSGAPGQRVTISCTGSDSDIGANFVQWYQQLPGTAPKLLIWRNTNRPSGVPDRFSASKSGTSASLAITGLQAEDEADYFCQSYDSSLSAYVFGGGTKVTVL : 11.69
Ab 38 (scFv, V domains shown) VH: QVTLKESGPTLVKPTQTLTLTCTFSGFSLTTSGVSVGWIRQPPGKALEWLALIHWDDDKRYSPSLRSRLTITRDTSKNQVVLTVTDMDPADTGTYYCASFIMTVYAEYFEDWGQGTLVTVSS VL: EIVLTQSPATLSVSPGERATLSCRASQSVSSNLAWYQQKPGQAPRLLMYDVSTRATGIPARFSGSGSGTEFSLTISSLQSEDFAVYYCQQRGAWPLTFGGGTKVEIK : 11.10

Now for a further binder.
Item S1-RBD-R3-E1-E8 Ab (Ab 37) (scFv, V domains shown) VH: QVQLVQSGAEVKKPGASVKVSCKASGYTFTSYGISWVRQAPGQGLEWMGWISTYNGNTNYAQKLQGRVTMTTDTSTSTAYMEVRSLRSDDTAVYYCARDVFGHFDYWGQGTLVTVSS VL: NFMLTQPHSVSESPGKTVLISCTRSSGNIATNYVQWYQQRPGSAPTTVIYEDNQRPSGVPDRFSGSIDSSSNSASLTISGLKTEDEADYYCKSYDDGNHVFGGGTKLTVL has what recorded pKd?
11.05
